PBM E-score values, listed per item
system-tested: Gcr1 (UniProt P07261)
Sequence: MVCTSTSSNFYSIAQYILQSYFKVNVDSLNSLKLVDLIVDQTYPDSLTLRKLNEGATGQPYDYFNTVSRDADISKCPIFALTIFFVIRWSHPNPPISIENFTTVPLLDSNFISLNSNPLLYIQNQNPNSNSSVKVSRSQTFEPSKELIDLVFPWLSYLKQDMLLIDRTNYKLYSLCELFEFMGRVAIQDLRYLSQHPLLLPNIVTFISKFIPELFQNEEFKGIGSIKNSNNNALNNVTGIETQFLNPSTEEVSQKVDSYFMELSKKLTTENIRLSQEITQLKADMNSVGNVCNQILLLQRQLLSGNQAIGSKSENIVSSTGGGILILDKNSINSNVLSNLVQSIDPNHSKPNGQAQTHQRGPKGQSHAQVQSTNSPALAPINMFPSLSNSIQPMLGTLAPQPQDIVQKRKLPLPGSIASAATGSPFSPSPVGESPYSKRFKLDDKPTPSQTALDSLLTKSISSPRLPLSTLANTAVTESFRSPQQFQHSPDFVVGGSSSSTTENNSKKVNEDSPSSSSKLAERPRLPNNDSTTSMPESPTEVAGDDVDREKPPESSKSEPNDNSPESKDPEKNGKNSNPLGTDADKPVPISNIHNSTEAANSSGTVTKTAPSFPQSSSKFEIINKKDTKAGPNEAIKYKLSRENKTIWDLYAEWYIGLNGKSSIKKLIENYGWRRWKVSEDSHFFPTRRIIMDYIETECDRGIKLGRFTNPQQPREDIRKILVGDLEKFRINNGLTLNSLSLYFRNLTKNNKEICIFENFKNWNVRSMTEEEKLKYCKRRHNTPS
procedure-details: PBM E-score (8-mer binding enrichment) (E-score (-0.5 to 0.5)); higher = stronger / more preferred TF binding
condition-details: protein concentration: 100 nM; construct: GST-full length
Whole data set: some 33,000 sequences, median “E-score (-0.5 to 0.5)” near -0.011, cut for the highest 2% near 0.28. Only a selection was taken, and the highest values are over-represented in it overall.
Returns: the value as a bare number; no unit string appended.

sequence-string: AAAAGTAG
reported: 0.295
//
sequence-string: ACGGCTCA
reported: -0.123

# return recorded PBM E-score for input GGAGTCCC
0.286

# return recorded PBM E-score for input ATATTATG
0.132

# return recorded PBM E-score for input CTCAATAC
-0.00463

# return recorded PBM E-score for input CACGCAGA
-0.137

----------
system-tested: Gcr1 (UniProt P07261)
Sequence: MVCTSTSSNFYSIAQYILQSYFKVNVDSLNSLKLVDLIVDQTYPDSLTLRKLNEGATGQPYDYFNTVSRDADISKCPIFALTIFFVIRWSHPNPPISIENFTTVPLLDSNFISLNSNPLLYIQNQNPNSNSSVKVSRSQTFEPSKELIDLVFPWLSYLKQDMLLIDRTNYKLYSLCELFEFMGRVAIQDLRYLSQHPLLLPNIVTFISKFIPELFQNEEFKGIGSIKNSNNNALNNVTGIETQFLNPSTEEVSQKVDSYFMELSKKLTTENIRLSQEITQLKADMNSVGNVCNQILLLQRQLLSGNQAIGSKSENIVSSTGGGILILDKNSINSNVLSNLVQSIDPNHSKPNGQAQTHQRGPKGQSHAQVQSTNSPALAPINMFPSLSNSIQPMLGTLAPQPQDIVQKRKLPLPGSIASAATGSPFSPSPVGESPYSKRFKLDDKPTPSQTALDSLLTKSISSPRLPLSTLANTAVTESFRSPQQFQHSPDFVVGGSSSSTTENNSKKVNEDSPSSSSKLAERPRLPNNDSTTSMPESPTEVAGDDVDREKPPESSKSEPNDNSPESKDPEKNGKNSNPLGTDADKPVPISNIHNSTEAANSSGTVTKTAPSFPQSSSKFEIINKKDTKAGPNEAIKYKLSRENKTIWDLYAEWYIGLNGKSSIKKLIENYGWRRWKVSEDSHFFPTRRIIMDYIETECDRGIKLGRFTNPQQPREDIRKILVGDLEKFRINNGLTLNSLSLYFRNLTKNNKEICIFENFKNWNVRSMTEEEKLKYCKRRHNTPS
procedure-details: PBM E-score (8-mer binding enrichment) (E-score (-0.5 to 0.5)); higher = stronger / more preferred TF binding
condition-details: protein concentration: 100 nM; construct: GST-full length
Whole data set: some 33,000 sequences, median “E-score (-0.5 to 0.5)” near -0.011, cut for the highest 2% near 0.28. For the sample, the highest values were picked, then their nearest neighbours and some sequences at random.
readout: PBM E-score
Returns: the value as a bare number; no unit string appended.

Use the examples below as a reference point.
sequence-string: AGAGGAAA
system-tested: Gcr1 (UniProt P07261)
PBM E-score: -0.0469
--
sequence-string: AGAGGATC
system-tested: Gcr1 (UniProt P07261)
PBM E-score: 0.024
--
sequence-string: GACATTCA
system-tested: Gcr1 (UniProt P07261)
PBM E-score: -0.094
--
sequence-string: AGAGGATA
system-tested: Gcr1 (UniProt P07261)
PBM E-score: -0.0247
--
sequence-string: CTAGGAAC
system-tested: Gcr1 (UniProt P07261)
PBM E-score: 0.149

Kindly consider the entry below.
Tell me its PBM E-score on Gcr1 (UniProt P07261): TCAGCTGA
-0.106

Provenance of the data: the supplement of paper PMC3334620
